Tested on: MS2 coat protein
method.summary: apparent KD of MS2 coat protein; higher = weaker reporter binding
applied.conditions: Eterna round: R107; input ligand: arginine 13.2 mM
observed.property: apparent KD of MS2 coat protein (µM)

[[record]]
biopolymer_sequence = "GGACUAACCAGAAGGAGCGGCACGCAGAAACUGCAAAAUCCUCCGCACGAGGAUCACCCGUGUCAGGUAGGUCGCUGGUUAGUCG [ArgBX 28]"
data_value = 0.0367

[[record]]
biopolymer_sequence = "UGUAUGUGAUUUGAUACCAGACCAACUGGUAAUACAUGAGGAUCACCCAUGUAGAUUUGGGUCCCUUGGCAGCAAAUCGCAUACU [SSTheo B #23]"
data_value = 0.0456

[[record]]
biopolymer_sequence = "ACUGGACAUGAGGAUCACCCAUGUGGCGAUACCAGUUUCAGCGGGAACCCUUGGCAGCGCGGUGCCGGCCAUAGAAGUUCUGGGA [theeternabot_sameState_MS2_Theo_A_39]"
data_value = 0.0421


###

System: MS2 coat protein
method.summary: apparent KD of MS2 coat protein; designed switch direction (-1 OFF switch, 1 ON switch): -1; higher = weaker reporter binding
applied.conditions: Eterna round: R95; input ligand: microRNA oligo, concentration not stated
observed.property: apparent KD of MS2 coat protein (nM)

[[record]]
biopolymer_sequence = "ACUUGCUAUUUGCUCGUCUUAUUUUUGUUUAUUUACUAUACAUGAGGAUCACCCAUGUUAUAUUUAAGGGUGUGAUA [JR_SV3TOV2_Sub074] (puzzle: Sensor v3, turn-off variant 2)"
data_value = 334

[[record]]
biopolymer_sequence = "ACGAGGUCAGGAUAUACAGAGAGAAGGAGUUGGUUGAGGUAACAUGAGGAUCACCCAUGUAGAAGGGACUGGGA [JR_Exclu2_Sub081] (puzzle: Exclusion 2)"
data_value = 31.2

[[record]]
biopolymer_sequence = "CUCUUGUUAGGAUAUCAAACCGGCAGCGGAGCCGCCGGAAGUGAGAAGGGACAUGAGGAUCACCCAUGUAAGAA [Quatdior] (puzzle: Exclusion 4)"
data_value = 58.9

[[record]]
biopolymer_sequence = "AGAUCCUGAGUCAGGAUAUAGAGGCGAAAGCCUGGCUAGAAGGGACAUGAGGAUCACCCAUGUGGGUUCGUGCC [Geariat] (puzzle: Brourd's mod of Exclusion 4)"
data_value = 19.6

[[record]]
biopolymer_sequence = "AAUUCUAGGGUCAGACGCACAAGCUUUUUGCUCGUUUUAACAUGAGGAUCACCCAUGUCUAGUGGAUCUGAUCGGGC [JL ViennaUCT Isreen mod 8] (puzzle: Sensor v3, turn-off variant 2)"
data_value = 72.9

[[record]]
biopolymer_sequence = "GUGUACGGAGGAUAUAUAUGGGCAGCAUACGCUGCAGCUUCACAUGAGGAUCACCCAUGUAGAAGGCUGUACAC [Mat - Exclusion 2 - Mod of Hyphema - D100] (puzzle: Exclusion 2)"
data_value = 22

[[record]]
biopolymer_sequence = "AGUACUAACACGAAAGUGUUAGUACUAUAAGUUUGUGUUACAUGAGGAUCACCCAUGUCCUCAUAAGCUCGUCUUGU [Mat - Sensor v3 - Turn-off var 2 - D95] (puzzle: Sensor v3, turn-off variant 2)"
data_value = 199

[[record]]
biopolymer_sequence = "CAGUACUGAGGAUAUACAUGAGGAUCACCCAUGUGCUCAAAGUAGGAUACUACUAUUAGUAGAAGGCAGUACUG [Fiskers Ex 3 828 mod 21] (puzzle: Exclusion 3)"
data_value = 23.5

[[record]]
biopolymer_sequence = "CCUCCACAUGAGGAUCACCCAUGUCAGGAUAUCGUGUGUGUUUUUUCGGUCUUUCGUGCGAGAAGGGACGUCUG (puzzle: Exclusion 1)"
data_value = 45.6

[[record]]
biopolymer_sequence = "UUUUUCGAACAAGCUUCGUACAUGAGGAUCACCCAUGUUUUUAGUUUUGUGUUGGUCAGUAUGGAAGUUCGUCUUAU [JR_SV3TOV1_Sub088] (puzzle: Sensor v3, turn-off variant 1)"
data_value = 356

[[record]]
biopolymer_sequence = "GGUCUGCGAGGAUAUACAUGAGGAUCACCCAUGUGCGAGUUACUAGUGAGGUCGGUUGGUAGAAGGCGCGGACG [JL-ex3-2.09 salish99 mod] (puzzle: Exclusion 3)"
data_value = 52.3

[[record]]
biopolymer_sequence = "CAUACUAAAGUCAGGAUAUGCAGUCGAAUACGGGUGUAGAAGGGACAUGAGGAUCACCCAUGUAGAUAGUAAAG [EX-4 Malc #20] (puzzle: Brourd's mod of Exclusion 4)"
data_value = 48.9

[[record]]
biopolymer_sequence = "CCGGAAGUAGAGGAUAUCGUAUCGGAUACGAUACGAGAAGGCUAUACAUGAGGAUCACCCAUGUGUCCUACCGG [Fiskers Ex 6 - 5] (puzzle: Exclusion 6)"
data_value = 21.4

[[record]]
biopolymer_sequence = "AGAGAGUCAGGAUAUCGAAGGUAGAGAAAAGGAGAGAGGUACGAGAAGGGACAUGAGGAUCACCCAUGUAGGUG [JR_Exclusion4)Sub014] (puzzle: Exclusion 4)"
data_value = 286

[[record]]
biopolymer_sequence = "UUCUUGGCAGGAUAUGCUUUUUUAGACAUGAGGAUCACCCAUGUGUUUAUUUUUUUUUUUGCAGAAGGGCCUUAAU [JR_E5_Sub043] (puzzle: Exclusion 5)"
data_value = 26.9

[[record]]
biopolymer_sequence = "GAUUGACAUGAGGAUCACCCAUGUGAGGAUAUCGGCCGGACCUUGUUAGCUUCCAGCGCGAGAAGGCGCAUAGG [Exclusion 1 V36] (puzzle: Exclusion 1)"
data_value = 28.6

[[record]]
biopolymer_sequence = "GAUUAUGCGAGCUUUAGGGACAUGAGGAUCACCCAUGUUCGUCUUAUUGAUCUGGAUGCGCUAACAUACCUAAAUCU [JMF 45] (puzzle: Sensor v3, turn-off variant 1)"
data_value = 71.1

[[record]]
biopolymer_sequence = "GCAUUGAGUGUGAGGAUAUGCUGGUCCUUGGAUCAGCAGAAGGCACAUGAGGAUCACCCAUGUGAAAACAAUGC [JL bmx4 3.12] (puzzle: Brourd's mod of Exclusion 4)"
data_value = 19.2

[[record]]
biopolymer_sequence = "GUCAUACAUGAGGAUCACCCAUGUAAGGAUAUGCUAGCGGUCGGAAGAAUGACUGCUAGCAGAAGGUACAUGAU [Mat - Mod of JL D83] (puzzle: Exclusion 1)"
data_value = 62.5

[[record]]
biopolymer_sequence = "UUUGUGUCAGGAUAUGAGUAGUAGAACAAUAGUACUACUACUCAGAAGGGACAUGAGGAUCACCCAUGUUCCUC [Fiskers Ex 4 Super stable 44 mod 21] (puzzle: Exclusion 4)"
data_value = 19

[[record]]
biopolymer_sequence = "CCGUGGCAAGGAUAUACAGAGGAGAGGAAGGCAAGAGGUGGACAUGAGGAUCACCCAUGUAGAAGGUGCAGAGC [JR_Exclu2_Sub026] (puzzle: Exclusion 2)"
data_value = 124


###

// apparent KD of MS2 coat protein lookup, one value per entry
System: MS2 coat protein
method.summary: apparent KD of MS2 coat protein; higher = weaker reporter binding
applied.conditions: Eterna round: R107; input ligand: theophylline 20 uM
observed.property: apparent KD of MS2 coat protein (nM)

[[record]]
biopolymer_sequence = "UUUUUUAUUGGGUAUAGAAUAUUAACUGAAGGAGCGUGGUAUUACACAGGUAGGUCGCAGUUUUUACAUGAGGAUCACCCAUGUU [JR_SSArginiA_Sub010]"
data_value = 51.5

[[record]]
biopolymer_sequence = "ACACAUGAGGAUCACCCAUGUAAAGUUGAAGGAGCGAUCAUUAGGUCAGGUAGGUCGCAGCACAUGAGGAUCACCCAUGUCGUGA [DOUBLE!!! :-D #2]"
data_value = 85.5

[[record]]
biopolymer_sequence = "GCAUCCUAGUCGGCCGCCACUGCAGGAUCGGCGGCAGAUCCUCAACAUGAGGAUCACCCAUGUAGCAGGACCGGGACUAGGAUGC [(Trp1)-(TM)''-(TM)'-(Ms2)-(Trp2)_Design2]"
data_value = 80.3

[[record]]
biopolymer_sequence = "GCACAAGAUGGAAGGAGCGCUGGUAAAGGUCACAUGAGGAUCACCCAUGUGCUCCUUGCCGAGCAGGUAGGUCGCCAUCUUGUGC [SSAB NP+V+V2 #3]"
data_value = 16.4

[[record]]
biopolymer_sequence = "UUGGGUUUGUGAAGGAGCGGGAAAGAUAUAUAUUUAAUCCUAACAUGAGGAUCACCCAUGUCCCAGGUAGGUCGCGCGGGUUUGG [12.O]"
data_value = 46.4

[[record]]
biopolymer_sequence = "GAUGAACUAUAUGAUACCAGACAACAUGAGGAUCACCCAUGUGAAUGUCGUCCUCUGCCUGUCCCUUGGCAGCGUAUAGUUUAUC [XTheo B #15]"
data_value = 67.6

[[record]]
biopolymer_sequence = "GCGAUGGAGCGAAGGAGCGUGCUGGUACAUGAGGAUCACCCAUGUGAGUCGCAUCGCUAAGCACAGGUAGGUCGCGCUCCAUCGC [EAB NP+V+V2 #10]"
data_value = 85

[[record]]
biopolymer_sequence = "UGUGUCGUCUGAAGGAGCGGCUCUUGAUCCUCGUGGGACAUGAGGAUCACCCAUGUCUCGAGCCAGGUAGGUCGCAGGCGGCACA [#27 Exclusion - Arginine B]"
data_value = 32.6

[[record]]
biopolymer_sequence = "GCUAGGUCAUCGGCCGCCACUAACGACGGUUCGAACAUGAGGAUCACCCAUGUGCCACAUGCGCAUAGGACCGGGAUGACCUAGC [SSTB NP+V+V2 #6]"
data_value = 24.3

[[record]]
biopolymer_sequence = "CUGACGUAGGAAGAUAUCUGGAACAAGGAUACCAGUAAACCAACAUACCCUUGGCAGCCUAAAACAUGAGGAUCACCCAUGUAAU [theeternabot_exclusion_MS2_Theo_A_26]"
data_value = 14.2

[[record]]
biopolymer_sequence = "UCGUGUCUAUUGGUUUAGCUUUAAUCGUUACGAGGACCGGUACGGCCGCCACUCGAUUUAACAUGAGGAUCACCCAUGUACUCUC [JR_ExcTryptoA_Sub012]"
data_value = 26.6

[[record]]
biopolymer_sequence = "UAGUUAGCGGCGGCCGCCACUCGAGAUAUAACAUGAUAUCAUAACAUGAGGAUCACCCAUGUCACGAGGACCGGGCCGAUCUUCA [Same State Typptophan B GF6]"
data_value = 102

[[record]]
biopolymer_sequence = "UCGCUCUGGGUGAGAUCCGGAGAUAUGGAAGGAGCGCUGAUGCCAGCAGGUAGGUCGCCAACGGACAUGAGGAUCACCCAUGUAC [Same State - Arginine A (Freestyle 10)]"
data_value = 64.2

[[record]]
biopolymer_sequence = "CCUCAAUAGACGGCCGCCACUGAAACAUGCGGAUACAUGAGGAUCACCCAUGUGGGUGUGUUACGCAGGACCGGGUCAAGACCCG [#12 Same State - Tryptophan B]"
data_value = 316

[[record]]
biopolymer_sequence = "AAUUCCUAACAUGAGGAUCACCCAUGUGAAGGAGCGCCGAAUAAGGCAGGUAGGUCGCACAUGGAACUGCUACGAAAGUAGAAAA [XArg-A 4 V2mod]"
data_value = 23.3

[[record]]
biopolymer_sequence = "AAGUAAACAUGAGCAAAGCUCAUGUGCGAAGGAGCGGCGGAAACGCCAGGUAGGUCGCGCACAUGAGCAUCAGCCAUGUGUAUCA [Omei Arginine B SS A v2]"
data_value = 33.5

[[record]]
biopolymer_sequence = "AAAUAAAUAACUGAUACCAGUGGACUGACAUGAGGAUCACCCAUGUUGGGUUUUGUUGUCCACCCUUGGCAGCAGGGAUAUAAAA [#24 Exclusion-TheophyllineB]"
data_value = 54.7

[[record]]
biopolymer_sequence = "ACAUGAGGAUCACCCAUGUGCAGCACGGAUACCAGCGUCCUAGUGCGCCCUUGGCAGCCGGACAUGAGGAUCACCCAUGUGUGGG [Exclusion Theophylline A GF30]"
data_value = 135

[[record]]
biopolymer_sequence = "GGGCUCGGAGUGCGGCGUGUUCCGCUCCGUCGAGGACCGGUACGGCCGCCACUCGACAUGAGGAUCACCCAUGUCCGAGCGCGCG [#1 Exclusion - Tryptophan A Attempt #6 (HarryS)]"
data_value = 41.7

[[record]]
biopolymer_sequence = "AACAUGAGGAUCACCCAUGUACCUUUCGAUCGAGGACCGGUACGGCCGCCACUCGAAAACAUGAGGAUCACCCAUGUUCAACAGG [Tryp A SS t3]"
data_value = 128

[[record]]
biopolymer_sequence = "ACAUUGCGCUCGGCCGCCACUGGCUUAUGAUUAUAAGCAUUAAUGAACAUGAGGAUCACCCAUGUCAGGACCGGGAGCGAACCAU [SSTryp B #7]"
data_value = 17.7

[[record]]
biopolymer_sequence = "AAAUAAAUACAUGAGGAUCACCCAUGUGAAGGAGCGCGCGUUAGCGCAGGUAGGUCGCACAUGAAUAACUCCGCGCGAAAGCGCA [MAT - Exclusion Arginine A - Mod of Eli - D11]"
data_value = 23.7

